Below, each of the compounds is paired with its reported composite z-score value.
- TEST TARGET: Neurogenic locus notch homolog protein 3 (Homo sapiens) (UniProt Q9UM47)
- Sequence (Q9UM47 whole entry, looked up): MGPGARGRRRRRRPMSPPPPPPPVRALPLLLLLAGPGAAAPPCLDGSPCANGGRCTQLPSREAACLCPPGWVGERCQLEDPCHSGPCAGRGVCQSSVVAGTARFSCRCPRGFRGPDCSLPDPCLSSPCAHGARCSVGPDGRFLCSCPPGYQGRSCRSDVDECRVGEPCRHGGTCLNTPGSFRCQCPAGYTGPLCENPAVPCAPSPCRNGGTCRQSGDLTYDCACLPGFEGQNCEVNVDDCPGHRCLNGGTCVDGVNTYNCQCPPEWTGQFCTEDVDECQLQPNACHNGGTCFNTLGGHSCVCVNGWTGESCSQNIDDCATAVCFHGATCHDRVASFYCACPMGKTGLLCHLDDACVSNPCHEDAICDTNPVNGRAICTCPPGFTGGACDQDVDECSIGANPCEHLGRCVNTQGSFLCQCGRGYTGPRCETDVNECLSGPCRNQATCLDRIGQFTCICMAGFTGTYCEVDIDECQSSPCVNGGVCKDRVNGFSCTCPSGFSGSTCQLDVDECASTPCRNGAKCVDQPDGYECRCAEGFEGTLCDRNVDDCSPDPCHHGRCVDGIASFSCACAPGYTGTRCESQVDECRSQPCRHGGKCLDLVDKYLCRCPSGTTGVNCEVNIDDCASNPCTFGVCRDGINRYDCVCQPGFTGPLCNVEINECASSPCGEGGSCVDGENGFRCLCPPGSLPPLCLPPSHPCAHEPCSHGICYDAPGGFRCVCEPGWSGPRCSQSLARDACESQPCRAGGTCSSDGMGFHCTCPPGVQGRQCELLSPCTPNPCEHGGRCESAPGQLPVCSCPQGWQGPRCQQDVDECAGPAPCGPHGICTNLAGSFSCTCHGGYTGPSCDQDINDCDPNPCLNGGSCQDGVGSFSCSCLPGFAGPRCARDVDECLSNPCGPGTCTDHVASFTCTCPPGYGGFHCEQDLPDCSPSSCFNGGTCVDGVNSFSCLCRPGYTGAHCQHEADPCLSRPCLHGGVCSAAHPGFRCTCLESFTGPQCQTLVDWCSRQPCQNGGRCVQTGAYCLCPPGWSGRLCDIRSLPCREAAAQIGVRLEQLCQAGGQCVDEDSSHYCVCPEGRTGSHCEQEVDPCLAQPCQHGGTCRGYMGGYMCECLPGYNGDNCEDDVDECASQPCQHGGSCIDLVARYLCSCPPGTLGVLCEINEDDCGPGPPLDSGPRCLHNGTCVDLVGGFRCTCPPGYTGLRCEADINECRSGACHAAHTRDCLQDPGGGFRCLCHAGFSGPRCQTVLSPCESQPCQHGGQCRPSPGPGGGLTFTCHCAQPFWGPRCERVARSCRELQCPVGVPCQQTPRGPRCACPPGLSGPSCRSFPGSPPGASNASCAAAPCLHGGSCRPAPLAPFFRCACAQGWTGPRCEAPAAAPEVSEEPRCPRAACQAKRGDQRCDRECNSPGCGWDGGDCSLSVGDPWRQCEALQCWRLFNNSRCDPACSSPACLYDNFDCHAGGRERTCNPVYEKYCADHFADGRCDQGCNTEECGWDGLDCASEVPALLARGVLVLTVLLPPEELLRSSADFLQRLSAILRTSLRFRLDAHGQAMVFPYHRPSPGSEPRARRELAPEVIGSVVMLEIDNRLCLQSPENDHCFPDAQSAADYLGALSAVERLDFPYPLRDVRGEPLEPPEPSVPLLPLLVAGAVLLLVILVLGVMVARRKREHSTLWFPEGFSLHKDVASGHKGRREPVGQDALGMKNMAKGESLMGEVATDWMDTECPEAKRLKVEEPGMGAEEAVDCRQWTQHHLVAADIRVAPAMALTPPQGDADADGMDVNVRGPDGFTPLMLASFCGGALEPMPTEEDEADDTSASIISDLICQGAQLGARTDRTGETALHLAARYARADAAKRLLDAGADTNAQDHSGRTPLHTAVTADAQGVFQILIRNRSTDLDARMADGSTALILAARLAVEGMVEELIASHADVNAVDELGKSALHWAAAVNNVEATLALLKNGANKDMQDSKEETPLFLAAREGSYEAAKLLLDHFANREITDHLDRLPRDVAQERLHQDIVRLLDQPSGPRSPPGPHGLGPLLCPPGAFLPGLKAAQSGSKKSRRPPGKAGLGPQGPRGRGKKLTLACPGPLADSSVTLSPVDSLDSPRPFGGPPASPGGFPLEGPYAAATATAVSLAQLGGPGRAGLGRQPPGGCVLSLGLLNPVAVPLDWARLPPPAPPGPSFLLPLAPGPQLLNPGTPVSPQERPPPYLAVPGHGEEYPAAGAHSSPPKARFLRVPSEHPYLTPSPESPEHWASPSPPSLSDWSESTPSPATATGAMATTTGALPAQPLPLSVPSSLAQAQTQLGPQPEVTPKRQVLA
- PROCEDURE DETAILS: small molecules binding NOTCH3 protein – biochemical, 635/667 nm fluorescence, primary screen (AID 1096)
- ASSAY CONDITIONS: small-molecule microarray, 635 nm fluorescence, higher = more signal
OUTCOME MEASURE: composite z-score

>  <COMPOUND>
CN(C)C(=O)[C@@]1(CCC(=O)OC(C)(C)C)N=C(c2ccc(OCCCO)cc2)O[C@H]1c1ccccc1N=[N+]=[N-]

>  <MEAS VALUE>
1.09

$$$$
>  <COMPOUND>
CC(C)CCC[C@@H](C)[C@H]1CC[C@@]2(C)C3=C(CC[C@]12C)[C@@]1(C)CC[C@H](OC(=O)C(C)(C)C)C(C)(C)C1CC3 (stereo not given in full)

>  <MEAS VALUE>
0.571

$$$$
>  <COMPOUND>
COc1cc(C(O)C2C=CC3C(=O)NC(=O)C3N2Nc2ccc(Cl)cc2Cl)cc(OC)c1OC (stereo not given)

>  <MEAS VALUE>
1.09

$$$$
>  <COMPOUND>
C=C(CCCC)/C(=C/C[C@H](OC(=O)c1ccncc1)c1ccc(CO)o1)c1cc(C(=O)OC)ccc1OC

>  <MEAS VALUE>
1.13

$$$$
>  <COMPOUND>
CCCCCCCCCCC(O)C1C=CC2C(=O)NC(=O)C2N1Nc1ccccn1 (stereo not given)

>  <MEAS VALUE>
0.243

$$$$
>  <COMPOUND>
COCCOC(=O)N1C(=O)[C@@]2(c3cc(C#CCCO)ccc31)[C@H](C(=O)N1CCc3cc(OC)c(OC)cc3C1)[C@H]1C(=O)O[C@H](c3ccccc3)[C@H](c3ccccc3)N1[C@@H]2c1ccc(OCCO)cc1

>  <MEAS VALUE>
1.07

$$$$
>  <COMPOUND>
O=C1C[C@@](C(=O)NCc2ccccc2)(c2ccc([N+](=O)[O-])cc2)[C@@H](c2ccc(CO)cc2I)N1C1CCCCC1

>  <MEAS VALUE>
1.12

$$$$
>  <COMPOUND>
[N-]=[N+]=Nc1ccccc1[C@H]1OC(c2ccc(OCCCO)cc2)=N[C@@]1(Cc1ccccc1)C(=O)NCc1ccccc1

>  <MEAS VALUE>
1.04

$$$$
>  <COMPOUND>
COC(=O)C(CC#Cc1ccc2c(c1)[C@]1(C(=O)N2)[C@H](c2ccc(O)cc2)N2[C@H](c3ccccc3)[C@H](c3ccccc3)OC(=O)[C@H]2[C@@H]1C(N)=O)C(=O)OC

>  <MEAS VALUE>
-1.06

$$$$
>  <COMPOUND>
CN(C)CCCCNC(=O)[C@H]1C[C@H]2C(=O)N[C@@H](CCCC[N+](C)(C)C)C(=O)N2[C@H]1c1cccc(OCCO)c1

>  <MEAS VALUE>
0.907

$$$$
>  <COMPOUND>
COc1ccc([Si](C)(C)[C@H]2[C@H](CC(=O)N3CCC[C@H]3CO)O[C@@]3(C(=O)N(Cc4ccc(N5C(=O)c6cccc7cccc5c67)cc4)c4ccccc43)[C@@H]2C)cc1

>  <MEAS VALUE>
1.13

$$$$
>  <COMPOUND>
COC(=O)[C@@]1(Cc2ccccc2)[C@H]2c3cc(C(=O)N(C)C)n(Cc4ccc(O)c(OC)c4)c3C[C@H]2CN1C(=O)c1ccccc1

>  <MEAS VALUE>
0.895

$$$$
>  <COMPOUND>
COc1ccc([Si](C)(C)[C@H]2[C@H](CCO)O[C@@]3(C(=O)N(Cc4cccc(N5CCOC5=O)c4)c4ccccc43)[C@@H]2C)cc1

>  <MEAS VALUE>
1.14

$$$$
>  <COMPOUND>
CCOC(=O)C1=CCC(c2cccc(Cl)c2)O1 (stereo not given)

>  <MEAS VALUE>
0.186

$$$$
>  <COMPOUND>
CCCCC(=C=CC[C@H](O)c1ccccc1OCCO)C[C@H](O)c1ccccn1

>  <MEAS VALUE>
0.0956

$$$$
